# Tested on: SNB-19 CNS
# method.notes: NCI tumour cell line growth inhibition, 48 h; in the data active = GI50 below about 0.43 µM; inactive = the rest
Labels: active, inactive

1) CCN(CC)c1ccc(C(=O)c2ccc(N(CC)CC)cc2)cc1 | inactive
2) CCCCCCCc1cc2c3c(nc4ccccc42)C(=O)c2cccnc2-c3n1 | inactive
3) CCCCCCCCCCCCC(O)[C@H]1CC[C@H](C(O)CCCCCC(=O)CCCCC2CC(C(C)=O)C(=O)O2)O1 (stereo not given in full) | inactive
4) CN(C)CCCNC(=O)c1cc(NC(=O)c2cc(NC(=O)CCNS(=O)(=O)c3ccc4c(c3)C(=O)c3ccccc3C4=O)cn2C)cn1C | inactive
5) O=C1CCc2c(sc3[nH]c(=S)n(Cc4ccc(Cl)cc4)c(=O)c23)C1 | active
6) O=C1C(Cl)=C(NCc2ccco2)C(=O)c2ccccc21 | inactive
7) CN(C)c1ccc(/C=C/c2cc[n+](C)c(/C=C/c3ccc(N(C)C)cc3)c2)cc1 | active
8) Cc1ccc(Cl)cc1NC(=O)c1sc2nc3c(cc2c1N)C(=O)CCC3 | inactive
9) Cc1ncc(C(=O)Nc2ccc(CN3CCN(C)CC3)c(C(F)(F)F)c2)cc1C#Cc1cnc(N)cc1C#N | inactive
10) O=C(OC[C@H]1O[C@H](OC(=O)c2cc(O)c(O)c(OC(=O)c3cc(O)c(O)c(O)c3)c2)[C@H](OC(=O)c2cc(O)c(O)c(OC(=O)c3cc(O)c(O)c(O)c3)c2)[C@@H](OC(=O)c2cc(O)c(O)c(OC(=O)c3cc(O)c(O)c(O)c3)c2)[C@@H]1OC(=O)c1cc(O)c(O)c(OC(=O)c2cc(O)c(O)c(O)c2)c1)c1cc(O)c(O)c(OC(=O)c2cc(O)c(O)c(O)c2)c1 | inactive
